# system: SARS-COV-2 spike, Mu variant (B.1.621) (SARS-COV-2, UniProt P0DTC2 14-1273)
# experiment: cell-based or functional assay
Please provide measured EC50, neutralization of spike pseudotyped virus for the entries that follow.

{"binder": "KP2C6 Nb-huFc (Fc fusion) EVQLQASGGGFVQPGGSLRLSCAASGRTFTSFHMGWFRQAPGKEREFVSAISSGDDGTQYYADSVKGRFTISRDNSKNTVYLQMNSLRAEDTATYYCAAYTTTTVPQYWGQGTQVTVSS", "result": "305 nM"}

Report EC50, neutralization of spike pseudotyped virus for each item below.
1. KP1C9 Nb-huFc (Fc fusion) EVQLQASGGGFVQPGGSLRLSCAASGRTFDAYSMGWFRQAPGKEREFVSAISSWSDDWTAYADSVKGRFTISRDNSKNTVYLQMNSLRAEDTATYYCALQNTKEDRLYWGQGTQVTVSS
2. BP2A3 Nb-huFc (Fc fusion) EVQLQASGGGFVQPGGSLRLSCAASGRTFSAYSMGWFRQAPGKEREFVSAISAGDGAASYYADSVKGRFTISRDNSKNTVYLQMNSLRAEDTATYYCAHYYTTSATLDYAYWGQGTQVTVSS
3. BP2H9 Nb-huFc (Fc fusion) EVQLQASGGGFVQPGGSLRLSCAASGQTFTHVPMGWFRQAPGKEREFVSAISDTSGFETYYADSVKGRFTISRDNSKNTVYLQMNSLRAEDTATYYCAWAYDQFNWNYWGQGTQVTVSS
4. KP1B5 Nb-huFc (Fc fusion) EVQLQASGGGFVQPGGSLRLSCAASGFTFDWSAMGWFRQAPGKEREFVSAISSSTSESTTYADSVKGRFTISRDNSKNTVYLQMNSLRAEDTATYYCATYYGGKTVEQDFYWGQGTQVTVSS

Key:
["2.02 nM", "466 nM", "922 nM", "367 nM"]

Where these numbers come from: patent US12091446
